The reported numbers originate from ChEMBL document CHEMBL1148794.

Target: Monoglyceride lipase (Rattus norvegicus)
Assay: Inhibition of MGL in rat cerebellum cytosolic fractions assessed as [3H]2-oleoylglycerol hydrolysis at 100 uM
Assay type: tissue-based
inhibition vs 40%: at or above is criterion met, below is criterion not met.

>>> class_assignment("CCCCCC/C=C\\CCCCCCCC(=O)OCC1CCCCO1 (racemic)")
"criterion met"
>>> class_assignment("O=C(OCC1CO1)c1ccccc1 (racemic)")
"criterion not met"
>>> class_assignment("O=C(OCC1CCCCO1)c1cccc(-c2ccccc2)c1 (racemic)")
"criterion not met"
>>> class_assignment("CCCCC/C=C\\C/C=C\\C/C=C\\C/C=C\\CCCC(=O)OC[C@@H]1COC(C)(C)O1")
"criterion met"
>>> class_assignment("CCCCCC/C=C\\CCCCCCCC(=O)OCC1CO1 (racemic)")
"criterion met"
>>> class_assignment("CCCCC/C=C\\C/C=C\\C/C=C\\C/C=C\\CCCC(=O)NCC1COC(C)(C)O1 (racemic)")
"criterion met"

----------
Examples of molecules with documented inhibition follow.
Biological target: Monoglyceride lipase (Rattus norvegicus) (UniProt Q8R431)
Sequence (whole entry): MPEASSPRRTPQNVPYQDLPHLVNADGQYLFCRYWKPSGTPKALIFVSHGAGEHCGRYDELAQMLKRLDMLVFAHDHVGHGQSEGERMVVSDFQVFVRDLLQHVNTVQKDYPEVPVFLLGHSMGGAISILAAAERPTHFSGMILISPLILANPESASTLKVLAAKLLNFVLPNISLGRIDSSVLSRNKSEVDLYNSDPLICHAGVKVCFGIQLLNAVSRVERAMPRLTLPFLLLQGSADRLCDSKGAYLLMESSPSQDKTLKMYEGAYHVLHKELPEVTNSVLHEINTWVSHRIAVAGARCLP
Experiment: Inhibition of MGL in rat cerebellum cytosolic fractions assessed as [3H]2-oleoylglycerol hydrolysis at 100 uM
Format: tissue-based
value.kind: inhibition (%)

>>> measured("CCCCCCCC/C=C\\CCCCCCCC(=O)OCC1CO1 (racemic)")
6
>>> measured("O=C(OCC1CO1)c1ccc(-c2ccccc2)cc1 (racemic)")
43
>>> measured("O=C(OCC1CCCCO1)c1ccc(-c2ccccc2)cc1 (racemic)")
43
>>> measured("CCCCC/C=C\\C/C=C\\C/C=C\\C/C=C\\CCCC(=O)OC1CCOCC1")
62
>>> measured("CCCCCCCC/C=C\\CCCCCCCC(=O)OCC1CCCCO1 (racemic)")
12
>>> measured("O=C(OCC1CCCCO1)c1ccccc1-c1ccccc1 (racemic)")
38

----------
Molecular target: Monoglyceride lipase (Rattus norvegicus)
Assay: Inhibition of MGL in rat cerebellum cytosolic fractions assessed as [3H]2-oleoylglycerol hydrolysis
Type: tissue-based
pIC50: −log10 of the molar value.
Listed molecules paired with reported pIC50
value.kind: pIC50

>>> measured("CCCCC/C=C\\C/C=C\\C/C=C\\C/C=C\\CCCC(=O)OCC1CCCO1 (centres undefined)")
4.68
>>> measured("CCCCC/C=C\\C/C=C\\C/C=C\\C/C=C\\CCCC(=O)NC[C@@H]1CCCO1")
5.46
>>> measured("CC/C=C\\C/C=C\\C/C=C\\CCCCCCCC(=O)OCC1CCCCO1 (racemic)")
4.64
>>> measured("CCCCC/C=C\\C/C=C\\C/C=C\\C/C=C\\CCCC(=O)OC[C@H]1COC(C)(C)O1")
4.22
>>> measured("O=C(OCC1CCCCO1)c1ccccc1 (racemic)")
5.52
>>> measured("CC/C=C\\C/C=C\\C/C=C\\CCCCCCCC(=O)OCC1CO1 (racemic)")
4.96
>>> measured("CCCCC/C=C\\C/C=C\\C/C=C\\C/C=C\\CCCC(=O)NCC1COC(C)(C)O1 (racemic)")
4.82
>>> measured("CCCCC/C=C\\C/C=C\\C/C=C\\C/C=C\\CCCC(=O)OCC1COC(C)(C)O1 (racemic)")
4.35
>>> measured("CCCCC/C=C\\C/C=C\\C/C=C\\C/C=C\\CCCC(=O)NC[C@H]1CCCO1")
4.60
>>> measured("CCCCC/C=C\\C/C=C\\C/C=C\\C/C=C\\CCCC(=O)OC[C@H]1CO1")
5.20
>>> measured("CCCCCC/C=C\\CCCCCCCC(=O)OCC1CO1 (racemic)")
4.89
>>> measured("CCCCC/C=C\\C/C=C\\C/C=C\\C/C=C\\CCCC(=O)OC1CCOCC1")
4.52
>>> measured("CCCCC/C=C\\C/C=C\\C/C=C\\C/C=C\\CCCC(=O)OC[C@@H]1CO1")
5.10
>>> measured("CCCCC/C=C\\C/C=C\\C/C=C\\C/C=C\\CCCC(=O)OCC1CCOC1 (centres undefined)")
4.37
>>> measured("CCCCC/C=C\\C/C=C\\C/C=C\\C/C=C\\CCCC(=O)OCCC1OCC(C)(C)CO1")
4.57
>>> measured("CCCCC/C=C\\C/C=C\\C/C=C\\C/C=C\\CCCC(=O)NCC1CCCO1 (centres undefined)")
4.47
>>> measured("CCCCC/C=C\\C/C=C\\C/C=C\\C/C=C\\CCCC(=O)OCC1CCCCO1 (racemic)")
5.25
>>> measured("CCCCC/C=C\\C/C=C\\C/C=C\\C/C=C\\CCCC(=O)OCc1ccc2c(c1)OCO2")
4.35
>>> measured("CCCCC/C=C\\C/C=C\\CCCCCCCC(=O)OCC1CCCCO1 (racemic)")
4.14
